# Assayed system: T1, monovalent hVISTA-ECD with polyhistidine tail (SEQ ID NO: 325) (human, UniProt Q9H7M9 33-193)
# T1 construct: also called hVISTA-ECD 6-His tag; human VISTA
# T1 sequence (Q9H7M9 other isoform, or with tags, fused parts or gaps limits assumed): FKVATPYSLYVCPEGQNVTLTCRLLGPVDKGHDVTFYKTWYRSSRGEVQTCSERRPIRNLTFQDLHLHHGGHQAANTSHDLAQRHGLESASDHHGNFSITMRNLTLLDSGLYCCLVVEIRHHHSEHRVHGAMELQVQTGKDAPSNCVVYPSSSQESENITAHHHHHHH
# Assay method text: SPR, mAb captured on Protein A chip, hVISTA injected, PBST pH 7.4, 37 C
Assay readout: Kd (nM)
Give the quantity in nM, number only.

P1-077887 (P1-068748 H31S D100S) (antibody, V domains shown, Reversion mutant of P1-068748 (Kabat names); captured on a Protein A chip) VH: QVQLVESGGGVVQPGRSLRLSCAASGFTFSSHAMHWVRQAPGKGLEWVAIIWYDGSNDDYADSVKGRFTISRDNSKNTLYLQMNSLRAEDTAVYYCARDSGFYSSYYFDYWGQGTLVTVSS VL: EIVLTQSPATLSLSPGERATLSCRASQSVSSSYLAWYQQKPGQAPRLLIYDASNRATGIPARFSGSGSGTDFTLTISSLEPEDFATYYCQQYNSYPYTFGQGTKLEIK    3

Next:
binder P1-077891 (P1-068748 H32Y D100S) (antibody, V domains shown, Reversion mutant of P1-068748 (Kabat names); captured on a Protein A chip) VH: QVQLVESGGGVVQPGRSLRLSCAASGFTFSHYAMHWVRQAPGKGLEWVAIIWYDGSNDDYADSVKGRFTISRDNSKNTLYLQMNSLRAEDTAVYYCARDSGFYSSYYFDYWGQGTLVTVSS VL: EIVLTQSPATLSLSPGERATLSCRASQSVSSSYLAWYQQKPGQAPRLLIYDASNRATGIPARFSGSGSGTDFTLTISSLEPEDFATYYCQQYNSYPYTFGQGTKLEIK , Kd observed: 2.1
